For each record, write down the corresponding MIC.
Test system: N. gonorrhoeae WHO Q
Assay: Liquid broth MIC in Fastidious broth
Settings: Neisseria gonorrhoeae, read-out: Minimum Inhibitory Concentration, WHO Q

Enquiry: Name the recorded MIC of the item O=C(NCCCN1CCN(C(=O)N[C@H](C(=O)N[C@H]2Cc3ccc(F)c(C(=O)O)c3OB2O)c2cc(F)c(O)c(O)c2Cl)C(=O)C1=O)c1cccc(O)c1Cl [Example 302] in your answer.
Return: > 64 µg/mL

Enquiry: Name the recorded MIC of the item O=C(NCCS(=O)(=O)N1CCN(C(=O)NC(C(=O)N[C@H]2Cc3ccc(F)c(C(=O)O)c3OB2O)c2cc(F)c(O)c(O)c2Cl)C1=O)c1cccnc1 (stereo partly drawn) [Example 262] in your answer.
Return: 16 to 32 µg/mL

Enquiry: Name the recorded MIC of the item O=C(NCCCN1CCN(C(=O)N[C@H](C(=O)N[C@H]2Cc3ccc(F)c(C(=O)O)c3OB2O)c2cc(F)c(O)c(O)c2Cl)C1=O)c1ccccc1 [Example 252] in your answer.
Return: > 64 µg/mL

====

Tested on: A. baumannii 1258916
Test: microbe, parasite or virus in culture
Type: cell-based, Acinetobacter baumannii
Settings: Acinetobacter baumannii, 1258916, read-out: MIC, A. baumannii 1258916
Readout label: MIC

Enquiry: Name the recorded MIC of the item O=C(NCCCN1CCN(C(=O)NC(C(=O)N[C@H]2Cc3ccc(F)c(C(=O)O)c3OB2O)c2cc(F)c(O)c(O)c2Cl)C(=O)C1=O)c1cc(O)c(F)c(O)c1F (some centres unmarked) in your answer.
Return: 2 to 4 µg/mL

Enquiry: Name the recorded MIC of the item O=C(NCCCN1CCN(C(=O)N[C@@H](C(=O)N[C@H]2Cc3ccc(F)c(C(=O)O)c3OB2O)c2cc(F)c(O)c(O)c2Cl)C1=O)Nc1cccc(O)c1 in your answer.
Return: < 1 µg/mL

Enquiry: Name the recorded MIC of the item O=C(O)c1c(F)ccc2c1OB(O)[C@@H](NC(=O)C(NC(=O)N1CCN(C3CCN(C(=O)Nc4ccc(F)c(O)c4)CC3)C(=O)C1=O)c1cc(F)c(O)c(O)c1Cl)C2 (some centres unmarked) in your answer.
Return: < 1 µg/mL

Enquiry: Name the recorded MIC of the item O=C(NCCCN1CCN(C(=O)NC(C(=O)N[C@H]2Cc3ccc(F)c(C(=O)O)c3OB2O)c2cc(F)c(O)c(O)c2Cl)C1=O)c1nccs1 (some centres unmarked) in your answer.
Return: < 1 µg/mL

Enquiry: Name the recorded MIC of the item O=C(O)c1c(F)ccc2c1OB(O)[C@@H](NC(=O)[C@H](NC(=O)N1CCN(C3CCN(C(=O)Nc4cc(O)ccc4Cl)CC3)C1=O)c1cc(F)c(O)c(O)c1Cl)C2 (single isomer, unassigned) in your answer.
Return: < 1 µg/mL

Enquiry: Name the recorded MIC of the item O=C(O)c1c(F)ccc2c1OB(O)[C@@H](NC(=O)C(NC(=O)N1CCN(C3CCN(C(=O)Nc4ccc(F)c(O)c4F)CC3)C1=O)c1cc(F)c(O)c(O)c1Cl)C2 (some centres unmarked) in your answer.
Return: < 1 µg/mL

Enquiry: Name the recorded MIC of the item O=C(O)c1c(F)ccc2c1OB(O)[C@@H](NC(=O)[C@H](NC(=O)N1CCN(C3CCN(C(=O)Nc4cccc(O)c4)CC3)C1=O)c1cc(F)c(O)c(O)c1Cl)C2 in your answer.
Return: < 1 µg/mL

Enquiry: Name the recorded MIC of the item CN(CCN1CCN(C(=O)NC(C(=O)N[C@H]2Cc3ccc(F)c(C(=O)O)c3OB2O)c2cc(F)c(O)c(O)c2Cl)C(=O)C1=O)S(=O)(=O)c1ccc(C(N)=O)cc1 (some centres unmarked) in your answer.
Return: 2 to 4 µg/mL

====

Molecular target: A. baumannii PBP2 (Acinetobacter baumannii)
Sequence (D0C8Z9 whole entry): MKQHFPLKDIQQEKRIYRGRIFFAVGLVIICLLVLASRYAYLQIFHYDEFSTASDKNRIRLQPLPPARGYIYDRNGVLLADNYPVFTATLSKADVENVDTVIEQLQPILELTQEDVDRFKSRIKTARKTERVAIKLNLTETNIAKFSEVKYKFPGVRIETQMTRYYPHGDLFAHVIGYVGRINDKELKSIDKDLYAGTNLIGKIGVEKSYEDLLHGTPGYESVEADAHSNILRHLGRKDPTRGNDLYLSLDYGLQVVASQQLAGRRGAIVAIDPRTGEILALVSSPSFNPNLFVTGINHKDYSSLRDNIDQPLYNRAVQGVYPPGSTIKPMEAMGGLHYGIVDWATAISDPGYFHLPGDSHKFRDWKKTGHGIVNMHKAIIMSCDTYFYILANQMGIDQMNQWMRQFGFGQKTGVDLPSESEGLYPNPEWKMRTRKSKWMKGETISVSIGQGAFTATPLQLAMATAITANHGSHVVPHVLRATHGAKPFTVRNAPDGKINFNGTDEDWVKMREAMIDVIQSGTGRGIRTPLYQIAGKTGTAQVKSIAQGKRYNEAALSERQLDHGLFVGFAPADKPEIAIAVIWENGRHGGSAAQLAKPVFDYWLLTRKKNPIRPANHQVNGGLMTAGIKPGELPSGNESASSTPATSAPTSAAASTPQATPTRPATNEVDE
Assay: Bocillin-FL competition binding via gel filtration, A. baumannii PBP2
pEC50: −log10 of the molar value.
For each record, write down the corresponding pEC50.

Enquiry: Name the recorded pEC50 of the item NCc1cccc(CN2CCC(N3CCN(C(=O)N[C@@H](C(=O)N[C@H]4Cc5ccc(F)c(C(=O)O)c5OB4O)c4cc(F)c(O)c(O)c4Cl)C3=O)CC2)c1 (single isomer, unassigned) [Example 613] in your answer.
Return: 4.30 to 5.00

Enquiry: Name the recorded pEC50 of the item O=C(NCCN1CCN(C(=O)NC(C(=O)N[C@H]2Cc3ccc(F)c(C(=O)O)c3OB2O)c2cc(F)c(O)c(O)c2Cl)C(=O)C1=O)Nc1cccc(O)c1 (stereo partly shown) [Example 220] in your answer.
Return: > 5.00

Enquiry: Name the recorded pEC50 of the item O=C(O)c1c(F)ccc2c1OB(O)[C@@H](NC(=O)[C@H](NC(=O)N1CCN(C3CCN(C(=O)c4cc(F)c(O)c(O)c4Cl)CC3)C1=O)c1ccc(P(=O)(O)O)cc1)C2 (single isomer, unassigned) [Example 495] in your answer.
Return: > 5.00

Enquiry: Name the recorded pEC50 of the item O=C(O)c1c(F)ccc2c1OB(O)[C@@H](NC(=O)C(NC(=O)N1CCN(C3CCN(C(=O)Nc4c(F)ccc(O)c4F)CC3)C(=O)C1=O)c1cc(F)c(O)c(O)c1Cl)C2 (stereo partly shown) [Example 487] in your answer.
Return: > 5.00

====

Tested on: P. aeruginosa ATCC 35151
Assay: microbe, parasite or virus in culture
Format: cell-based
Settings: Pseudomonas aeruginosa, ATCC35151, read-out: MIC P. aeruginosa ATCC 35151
For each record, write down the corresponding MIC.

Enquiry: Name the recorded MIC of the item CS(=O)(=O)N1CCN(C(=O)N[C@@H](C(=O)N[C@H]2Cc3ccc(F)c(C(=O)O)c3OB2O)c2ccc(P(=O)(O)O)c(F)c2F)C1=O [Example 16] in your answer.
Return: 2 to 4 µg/mL

Enquiry: Name the recorded MIC of the item CCN1CCN(C(=O)NC(C(=O)N[C@H]2Cc3cccc(C(=O)O)c3OB2O)c2ccc(P(=O)(O)O)c(F)c2O)C(=O)C1=O (some centres unmarked) [Example 198] in your answer.
Return: 8 to 16 µg/mL

Enquiry: Name the recorded MIC of the item Nc1ncc(C(=O)N[C@@H](C(=O)N[C@H]2Cc3cccc(C(=O)O)c3OB2O)c2ccc(P(=O)(O)O)cc2)s1 (racemic) [Example 50] in your answer.
Return: 2 to 4 µg/mL

Enquiry: Name the recorded MIC of the item CS(=O)(=O)N1CCN(C(=O)NC(C(=O)N[C@H]2Cc3cccc(C(=O)O)c3OB2O)c2ccc(P(=O)(O)O)c(Cl)c2)C1=O (some centres unmarked) [Example 11] in your answer.
Return: 8 to 16 µg/mL

Enquiry: Name the recorded MIC of the item CS(=O)(=O)N1CCN(C(=O)N[C@H](C(=O)N[C@H]2Cc3cccc(C(=O)O)c3OB2O)c2ccc(P(=O)(O)O)cc2)C1=O (single isomer, unassigned) [Example 5] in your answer.
Return: 8 to 16 µg/mL

Enquiry: Name the recorded MIC of the item O=C(N[C@@H](C(=O)N[C@H]1Cc2cccc(C(=O)O)c2OB1O)c1ccc(P(=O)(O)O)cc1)c1cnc2ccnn2c1 (single isomer, unassigned) [Example 187] in your answer.
Return: 2 to 4 µg/mL

Enquiry: Name the recorded MIC of the item CCN1CCN(C(=O)NC(C(=O)N[C@H]2Cc3cccc(C(=O)O)c3OB2O)c2ccc(P(=O)(O)O)cc2)C1=O (some centres unmarked) [Example 42] in your answer.
Return: < 1 µg/mL

Enquiry: Name the recorded MIC of the item CCN1CCN(C(=O)NC(C(=O)N[C@H]2Cc3cccc(C(=O)O)c3OB2O)c2c(F)cc(P(=O)(O)O)cc2F)C(=O)C1=O (some centres unmarked) [Example 25] in your answer.
Return: 2 to 4 µg/mL

====

Test system: P. aeruginosa (ΔmexAB-oprM)
Experiment: Broth microdilution MIC in iron-depleted CAMHB (IDM)
Type: cell-based
Conditions: Pseudomonas aeruginosa; iron-depleted CAMHB (IDM); […]; read-out: Minimum inhibitory concentration, P. aeruginosa ΔmexAB-oprM
For each record, write down the corresponding MIC.

Enquiry: Name the recorded MIC of the item O=C(NCCN1CCN(C(=O)NC(C(=O)N[C@H]2Cc3ccc(F)c(C(=O)O)c3OB2O)c2cc(F)c(O)c(O)c2Cl)C(=O)C1=O)c1cccnc1 (stereo partly drawn) in your answer.
Return: < 1 µg/mL

Enquiry: Name the recorded MIC of the item O=C(O)c1c(F)ccc2c1OB(O)[C@@H](NC(=O)C(NC(=O)N1CCN(C3CCN(S(=O)(=O)c4cccc(O)c4)CC3)C(=O)C1=O)c1cc(F)c(O)c(O)c1Cl)C2 (stereo partly drawn) in your answer.
Return: < 1 µg/mL

Enquiry: Name the recorded MIC of the item O=C(O)c1c(F)ccc2c1OB(O)[C@@H](NC(=O)[C@@H](NC(=O)N1CCN(C3CCN(C(=O)c4ccc(O)cc4)CC3)C1=O)c1cc(F)c(O)c(O)c1Cl)C2 (single isomer, unassigned) in your answer.
Return: 2 to 4 µg/mL
